The reader will find reported Percent Effect values listed item by item below.
Biological target: Tyrosyl-tRNA synthetase, putative (Trypanosoma cruzi (strain CL Brener)) (UniProt Q4DSP6)
Test: Trypanosoma cruzi tyrosyl tRNA synthetase (TcYRS) SOP
Format: functional
Set-up: scale not given: direction of the effect not stated beside the values
Settings: 30 µM
Just the number please, in %, no unit attached.

[[record]]
compound = "O=C(Cc1csc(-c2ccco2)n1)N1CCN(c2cnccn2)CC1"
number = 22.8

[[record]]
compound = "Cc1nc(C2CCCN(C(=O)c3ccc(N4CCCC4)nc3)C2)no1 (stereo unspecified)"
number = 12.7

[[record]]
compound = "c1ncn(CC2CCCN(Cc3nc(C4CC4)no3)C2)n1 (stereo unspecified)"
number = 13.9


Value of Percent Effect reported for the compound Cc1csc(CNC(=O)NCCc2ccc3c(c2)OCCO3)n1 is 23.5

Value of Percent Effect reported for the compound O=C(NCCCO)C1CC(=O)N(c2n[nH]c3cccc(F)c23)C1 (stereo unspecified) is 15.4

Value of Percent Effect reported for the compound CCc1n[nH]c(C2CN(C(=O)c3cnc(C)s3)CCO2)n1 (stereo unspecified) is 8.86

* * *

Target: Sialic acid-binding Ig-like lectin 9 (Homo sapiens)
Assay: Hs-Siglec9 ALPHAscreen SOP 20170721
Design: scale not given: direction of the effect not stated beside the values
Conditions: 10 µM
The reader will find reported Percent Effect values listed item by item below.
Just the number please, in %, no unit attached.

Value of Percent Effect reported for the compound O=C(NC1CCC1)[C@@H]1CCO[C@@H]2CCN(CCc3ccccc3)C[C@H]21 is -3.15

Value of Percent Effect reported for the compound CC(=O)NCC(=O)N1Cc2nccn2CC(CN2CCCC2)C1 (stereo unspecified) is -2.08

Value of Percent Effect reported for the compound Cc1[nH]nc2ncc(C(=O)N3CCN(CC(C)C)CC3)cc12 is -2.95

Value of Percent Effect reported for the compound Cc1nc(C)n(C2CCCN(C(=O)c3csnn3)C2)n1 (stereo unspecified) is -1.58

Value of Percent Effect reported for the compound COc1c(CNCCNC(=O)Cc2ccc(F)cc2)c(C)nn1C is -2.01

Value of Percent Effect reported for the compound CCc1n[nH]c(C2CN(C(=O)c3cnc(C)s3)CCO2)n1 (stereo unspecified) is 12.5

Value of Percent Effect reported for the compound N#Cc1ncn(CC(=O)Nc2cc(Cl)ccc2F)n1 is 0.779

Value of Percent Effect reported for the compound Cc1cc2n(n1)CC(CNCc1ccnc(-n3ccnc3C)c1)CN2 (stereo unspecified) is -7.03

Value of Percent Effect reported for the compound CC(C)c1n[nH]c(C2CN(C(=O)c3cccc4cn[nH]c34)CCO2)n1 (stereo unspecified) is 11.6

Value of Percent Effect reported for the compound CC(O)CN1CCN(C(=O)c2ccc(Cn3cccc3)cc2)CC1 (stereo unspecified) is -2.4

Value of Percent Effect reported for the compound COc1cccc(C2CCCN2C(=O)c2cc3c([nH]c2=O)CCC3)c1 (stereo unspecified) is -4.05

* * *

Target: Tyrosyl-tRNA synthetase, putative (Trypanosoma cruzi (strain CL Brener)) (UniProt Q4DSP6)
Assay: Trypanosoma cruzi tyrosyl tRNA synthetase (TcYRS) SOP
Assay type: functional
Design: scale not given: direction of the effect not stated beside the values
Settings: 30 µM
observation.type: Percent Effect (%)
Just the number please, in %, no unit attached.

Take a look at these entries with their results.
[[record]]
compound = "NC(=O)Cc1ccc(NC(=O)C2CCOCC2)cc1"
tgt = "Tyrosyl-tRNA synthetase, putative (Trypanosoma cruzi (strain CL Brener)) (UniProt Q4DSP6)"
number = 15.8

[[record]]
compound = "CN(C(=O)NCCCN1CCCC1)C1CCN(c2ccccc2)C1=O (stereo not drawn)"
tgt = "Tyrosyl-tRNA synthetase, putative (Trypanosoma cruzi (strain CL Brener)) (UniProt Q4DSP6)"
number = 12.2

[[record]]
compound = "CC(=O)NCCN1CCC(c2cccs2)CC1"
tgt = "Tyrosyl-tRNA synthetase, putative (Trypanosoma cruzi (strain CL Brener)) (UniProt Q4DSP6)"
number = 10

[[record]]
compound = "COC(=O)C(c1cc(F)ccc1F)N(C)C(=O)c1ccnc(C)n1 (stereo not drawn)"
tgt = "Tyrosyl-tRNA synthetase, putative (Trypanosoma cruzi (strain CL Brener)) (UniProt Q4DSP6)"
number = 15.2

[[record]]
compound = "N#Cc1ccccc1CN1C[C@@H]2CC[C@H](C1)N(CC1CC1)C2=O"
tgt = "Tyrosyl-tRNA synthetase, putative (Trypanosoma cruzi (strain CL Brener)) (UniProt Q4DSP6)"
number = 14.6

[[record]]
compound = "CC(=O)Nc1nc(C(=O)N2CCCC2Cn2cc(C)cn2)cs1 (stereo not drawn)"
tgt = "Tyrosyl-tRNA synthetase, putative (Trypanosoma cruzi (strain CL Brener)) (UniProt Q4DSP6)"
number = 9.41


Value of Percent Effect reported for the compound Cc1nccn1CC1CCCN1CCCc1nc(-c2cccs2)no1 (stereo not drawn) is 13.6

Value of Percent Effect reported for the compound CCOc1ncccc1C(=O)NCCN(CC)C1CC1 is 0

Value of Percent Effect reported for the compound CC(Cn1cccn1)NC(=O)Nc1nccs1 (stereo not drawn) is 19.5

* * *

The reader will find reported Percent Effect values listed item by item below.
Target: Tyrosyl-tRNA synthetase, putative (Trypanosoma cruzi (strain CL Brener)) (UniProt Q4DSP6)
Sequence (whole entry): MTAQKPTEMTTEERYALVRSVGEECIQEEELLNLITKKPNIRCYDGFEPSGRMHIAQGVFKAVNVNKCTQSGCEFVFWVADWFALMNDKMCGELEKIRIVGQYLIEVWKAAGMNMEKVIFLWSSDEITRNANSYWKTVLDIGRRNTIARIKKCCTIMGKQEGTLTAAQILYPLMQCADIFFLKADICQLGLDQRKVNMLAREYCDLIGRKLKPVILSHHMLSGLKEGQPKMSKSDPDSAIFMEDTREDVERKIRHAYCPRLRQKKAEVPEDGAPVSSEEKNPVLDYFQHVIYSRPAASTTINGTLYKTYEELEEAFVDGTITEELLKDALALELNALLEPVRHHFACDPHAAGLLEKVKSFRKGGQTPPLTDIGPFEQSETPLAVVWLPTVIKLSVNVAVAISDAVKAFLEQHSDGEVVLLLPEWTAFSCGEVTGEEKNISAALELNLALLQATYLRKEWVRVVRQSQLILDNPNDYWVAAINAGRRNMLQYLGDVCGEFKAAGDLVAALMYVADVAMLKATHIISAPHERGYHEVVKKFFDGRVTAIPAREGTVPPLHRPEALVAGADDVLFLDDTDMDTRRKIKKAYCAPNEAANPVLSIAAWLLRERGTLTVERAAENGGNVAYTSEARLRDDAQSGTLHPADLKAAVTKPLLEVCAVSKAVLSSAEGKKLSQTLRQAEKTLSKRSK
Test: Trypanosoma cruzi tyrosyl tRNA synthetase (TcYRS) SOP
Format: functional
Set-up: scale not given: direction of the effect not stated beside the values
Details: 30 µM
Just the number please, in %, no unit attached.

Take a look at these entries with their results.
[[record]]
molecule = "COc1cccc(S(=O)(=O)NC(=O)COc2c(C)cccc2C)c1"
observation_type = "Percent Effect"
output_unit = "%"
number = 12.2

[[record]]
molecule = "Cn1ncc2c1CN(Cc1cccnc1)CC2COCC1CC1 (stereo not given)"
observation_type = "Percent Effect"
output_unit = "%"
number = 8.64

[[record]]
molecule = "Cc1cc2c(=O)n3c(nc2s1)CCN(C(=O)c1ccncc1)CC3"
observation_type = "Percent Effect"
output_unit = "%"
number = 6.49

[[record]]
molecule = "CCCS(=O)(=O)N1CCC(NC(=O)c2ccc(Cl)s2)CC1"
observation_type = "Percent Effect"
output_unit = "%"
number = 16.1

[[record]]
molecule = "CN(C)CC1CN(C(=O)NCc2ccccc2)Cc2nccn2C1 (stereo not given)"
observation_type = "Percent Effect"
output_unit = "%"
number = 6.17


Fill in: Tyrosyl-tRNA synthetase, putative (Trypanosoma cruzi (strain CL Brener)) (UniProt Q4DSP6) Percent Effect for CN1Cc2c(C(=O)Nc3cccnc3)ncn2-c2ccccc2S1(=O)=O = 6.17

* * *

Biological target: Proteasome subunit beta (Trypanosoma cruzi) (UniProt O96673)
Sequence (O96673 as listed by the source): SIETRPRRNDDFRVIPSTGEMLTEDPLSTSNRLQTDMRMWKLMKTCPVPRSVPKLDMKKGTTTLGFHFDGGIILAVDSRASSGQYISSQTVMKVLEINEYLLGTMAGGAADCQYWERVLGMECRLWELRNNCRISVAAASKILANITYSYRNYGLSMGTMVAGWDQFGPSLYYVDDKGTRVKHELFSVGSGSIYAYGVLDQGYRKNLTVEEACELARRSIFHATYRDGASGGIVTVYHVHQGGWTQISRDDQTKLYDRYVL
Assay: Trypanosoma cruzi proteasome chymotrypsin-like activity (TcProtChymo) assay. Note: in the data most compounds retested in dose-response had high values.
Assay type: functional
Design: scale not given: direction of the effect not stated beside the values
Conditions: 9.37 µM
Mark Satisfied for Percent Effect under 10%, Not satisfied if at or over.

Below, 4 molecules whose answers are already recorded.
[[record]]
chem_smiles = "Cc1nc2ccnn2c(C)c1CCC(=O)N1CCN(C2CC2)CC1"
qualitative_label = "Not satisfied"

[[record]]
chem_smiles = "Cn1cccc1C(=O)N1CC[C@H]2C[C@@H](c3ccncn3)O[C@@H]2C1"
qualitative_label = "Not satisfied"

[[record]]
chem_smiles = "Cc1ccccc1C(=O)NCc1ccc(N2CCNC(=O)C2)cc1"
qualitative_label = "Not satisfied"

[[record]]
chem_smiles = "Cn1cc(-c2cnc(N3CCOCC3)nc2)cc1C(=O)N1CCOCC1"
qualitative_label = "Satisfied"


Query: A record lists Cc1cnn(CCC(=O)N2CCC(Nc3cccnn3)CC2)c1 . Is its Percent Effect below 10%?
Result: Satisfied

Query: A record lists CCC1=N[C@@]2(CC[C@@H]3CN(Cc4ccc(Cl)cc4)C[C@@H]32)C(=O)N1C . Is its Percent Effect below 10%?
Result: Not satisfied

Where do these numbers come from? They come from ChEMBL document CHEMBL3988442.
